src = PubChem BioAssay

# assay: basal 3T3-L1 adipocyte mitochondrial potential changes, profiling panel, cell-based, JC-1 fluorescence, 3T3-L1 adipocytes, 24 h, 100 nL compound (AID 1168); note: test concentration not given here
# experimentalContext: JC-1 mitochondrial fluorescence, higher = more signal, called active from +8 up or from −8 down
Activity calls are given as the source filed them.
quantityMeasured: z-score

COc1ccc(CCNC(=O)[C@@]2(C)c3ccccc3C(=O)N(Cc3cc(C(F)(F)F)cc(C(F)(F)F)c3)[C@H]2c2ccc(CO)cc2)cc1: -0.299 (inactive)
C=CC[C@]1(C(=O)NCCCOC)N=C(c2ccc(OCCCO)cc2)O[C@H]1c1ccccc1: 0.171 (inactive)
NC(=O)N1C(=O)C2C(C1=O)C1C=C(CCCO)C2C(c2ccc(CN3CCCC3)cc2)N1Cc1cccc(OC(F)(F)F)c1 (configuration not stated): -0.348 (inactive)
CCOC(=O)C1=CCC(c2cc3ccccc3[nH]2)N(S(=O)(=O)c2ccccc2[N+](=O)[O-])C1 (configuration not stated): -0.433 (inactive)
CCCC[C@H]1OB(O)C[C@H]2C1=C(C)C[C@H]1C(=O)C=CC(=O)[C@H]12: -1.24 (inactive)

State the recorded z-score for this entry: N[C@@H](Cc1ccccc1)Cn1cc(C2(O)CCCCC2)nn1
-0.375 (inactive)

What do we get for CC(C)C[C@H]1NC(=O)[C@@]23C(=O)N[C@@H](Cc4ccccc4)C2[C@H](C)[C@@]2(C)O[C@H]2C3/C=C/C/C=C\CNC(=O)[C@@H]2CCCN2C1=O (some centres not stated) ?
0.244 (inactive)

====

# assay: basal HepG2 mitochondrial membrane potential changes, profiling panel, cell-based, JC-1 fluorescence, 24 h, 100 nL compound (AID 1167); note: test concentration not given here
# experimentalContext: higher = more signal
quantityMeasured: z-score
Response field accepts a number only; no unit should be typed.

[N-]=[N+]=NCc1ccccc1C[C@@]1(C(=O)O)N=C(c2ccc(OCCCO)cc2)O[C@@H]1c1ccccc1CN=[N+]=[N-]: -0.168
COc1ccc(CC[C@H](O)c2cccc(OCC(=O)OC(C)(C)C)c2)cc1: -2.71
CN(C)C(=O)[C@]1(Cc2ccccc2CN=[N+]=[N-])N=C(c2ccc(OCCCO)cc2)O[C@@H]1c1ccccc1N=[N+]=[N-]: 0.271

Reported z-score for CO[C@H]1O[C@H](CO)[C@@H](OC(=O)Nc2ccc3c(c2)OCO3)[C@@H]2OC(=O)[C@@H](Cc3ccccc3)C/C=C/C[C@H](Cc3ccccc3)C(=O)O[C@@H]12 : what is it?
0.186

====

# assay: E. coli DRC41 culture turbidity changes, primary screen, E. coli filamentation inducer project, strain DRC41, OD650, 48 h (AID 1152);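 note: E. coli MC1000 strain DRC41 lacking acrAB efflux pump and sulA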
# experimentalContext: E. coli DRC41 (acrAB sulA), higher = more signal, called active from +8 up or from −8 down
# z-score values compiled below
Give the value as a plain number.

Please review the following examples before continuing.
CCCCN1CC=CC23O[C@@H]4/C=C\CCC(C)OC(=O)C4[C@H]2C(=O)N(C(C)CO)[C@@H]3C1=O (stereo partly drawn): 0.0581
O=C1N(CCS(=O)(=O)c2ccccc2)c2ccccc2[C@@H]2OC(c3ccc(OCCCO)cc3)=N[C@]12CCS(=O)(=O)c1ccccc1: -0.927

Then there is this compound:
Need z-score of O=C1NC(=O)C2C1C=CC(C(O)c1cccc(O)c1)N2Nc1ccc(Cl)cc1Cl (stereo not drawn) , thanks.
-4.5

====

# Tested on: Plasmodium falciparum Sir2 (PF13_0152, Sir2A)
# assay: pfSir2 binders on small-molecule microarrays, primary screen, biochemical, small-molecule microarray, 635 nm fluorescence (AID 1098);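 note: score merges spot fluorescence intensity with its signal-to-noise ratio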
# experimentalContext: small-molecule microarray binding, fluorescence 635 nm; higher = more signal
Quick rule for you: composite z-score at 1 or higher means true (1), lower means false (0).

Some solved cases for reference:
COc1ccc([Si](C)(C)[C@@H]2[C@@H](CCO)O[C@]3(C(=O)N(Cc4ccccc4)c4ccc(N5C(=O)c6ccccc6Oc6ccccc65)cc43)[C@H]2C)cc1: false (0)
CC(C)C[C@@H]1NC(=O)[C@@H]2C[C@H](C(=O)O)[C@H](c3ccc(O)cc3)N2C1=O: true (1)
NCCCC[C@@H]1NC(=O)[C@H]2C[C@@H](C(=O)O)[C@@H](c3cccc(OCCO)c3)N2C1=O: true (1)
C=C(C(=O)CC[C@@H](OC(C)=O)c1cccc(OCCO)c1)C(C)C: true (1)
COc1ccc(CCNC(=O)[C@@]2(Sc3ccc(C)cc3)CC(=O)N(C(C)C)[C@@H]2c2ccc(CO)cc2)cc1: true (1)

Has COc1ccc([Si](C)(C)[C@@H]2[C@@H](CC(=O)N(CCO)Cc3ccccc3)O[C@]3(C(=O)N(Cc4ccc(N5CCC5=O)cc4)c4ccccc43)[C@H]2C)cc1 a recorded composite z-score greater than or equal to 1?
true (1)

And then COCC(=C=CC[C@@H](O)c1ccc(OCCO)cc1)C[C@@H](O)COCc1ccccc1 , what is it?
false (0)

====

# assay: PSAC antagonists in infected red cells, primary screen, cell-based, P. falciparum Indochina, OD700, 1 h (AID 1154)
# experimentalContext: P. falciparum Indochina infected RBC osmotic lysis, called active from +8 up or from −8 down
Calls of active or inactive are those of the source.
Returns: one label drawn from active, inactive

Record excerpt, results attached:
COCCOC(=O)N1C(=O)[C@@]2(c3cc(C#CC4=CCCCC4)ccc31)[C@H](C(=O)N1CCN(c3ncccn3)CC1)[C@H]1C(=O)O[C@H](c3ccccc3)[C@H](c3ccccc3)N1[C@@H]2c1ccccc1OCCO: inactive
O=C1N(Cc2ccccc2)c2ccccc2[C@H]2OC(c3ccc(OCCCO)cc3)=N[C@@]12Cc1ccccc1: active
CN(C)C(=O)[C@]1(Cc2ccccc2)N=C(c2ccc(OCCCO)cc2)O[C@@H]1c1ccccc1: active
C=C(COC)/C(=C/C[C@@H](OC(C)=O)c1ccccc1OCCO)c1cc(C(=O)OC)ccc1OC: active
COCCOC(=O)N1C(=O)[C@@]2(c3ccccc31)[C@H](C(N)=O)[C@H]1C(=O)O[C@H](c3ccccc3)[C@H](c3ccccc3)N1[C@@H]2c1ccc(OCCO)cc1: inactive
COc1cc2c(cc1O)C(C1CC1)N(Cc1ccc([N+](=O)[O-])o1)CC2 (stereo not drawn): active
O=C1O[C@@H](c2ccccc2)[C@@H](c2ccccc2)N2[C@@H](c3ccc(OCCO)cc3)[C@]3(C(=O)Nc4ccc(C#CCCO)cc43)[C@@H](C(=O)Nc3nc4ccccc4s3)[C@H]12: inactive
CCC[C@@H]1[C@@H](Sc2ccccc2)[C@@H](C(=O)O)[C@H](c2ccc(C)cc2)N1S(=O)(=O)c1ccc(C)cc1: inactive

Here's the next entry for you.
Hey, what did the test say about CN1C(=O)C2C(C1=O)C1C=C(c3ccc(CO)cc3)C2C(c2cccs2)N1C (stereo not drawn) ?
inactive

====

# assay: HepG2 cell viability effects, profiling panel, calcein-AM fluorescence, 48 h, basal (AID 1164); note: test concentration not given here
# experimentalContext: higher = more signal
quantityMeasured: z-score
Lab note: record just the number, no unit beside it.

Before answering, review these 5 worked examples.
[N-]=[N+]=NCc1ccccc1C[C@]1(C(=O)N2CCCCC2)N=C(c2ccc(OCCCO)cc2)O[C@H]1c1ccccc1: -0.923
[N-]=[N+]=NCc1ccccc1C[C@]1(C(=O)O)COC(c2ccc(OCCCO)cc2)=N1: 0.383
CC(C)C[C@@H]1NC(=O)[C@H]2C[C@@H](C(=O)NCCCCCNC(=O)CS)[C@@H](c3ccc(O)cc3)N2C1=O: -0.724
Cc1ccc(F)cc1S(=O)(=O)N[C@@H]1CCN(Cc2ccc3c(c2)OCO3)C1: 0.326
COc1ccc([Si](C)(C)[C@H]2[C@H](CCn3cc([C@H](O)c4ccccc4)nn3)O[C@@]3(C(=O)N(c4ccccc4)c4ccccc43)[C@@H]2C)cc1: -1.31

// lookup z-score for CCCCN1CC=CC23O[C@@H]4C=CCOC(=O)[C@@H]4[C@H]2C(=O)N(CCO)[C@@H]3C1=O (some centres undefined)
0.442

What do you have for CN(C)C(=O)[C@]1(Cc2ccccc2)N=C(c2ccc(OCCCO)cc2)O[C@@H]1c1ccccc1 ?
0.846

Same question for CC(C)=CCN(C(=O)C#Cc1ccccc1)[C@H](CO)c1ccccc1 please.
-5.06

Now the same for CCCC=C(CCC)[C@@H](NS(=O)(=O)c1ccc(Cl)cc1)c1ccccc1
-1.42

====

A collection of compounds and their measured composite z-score
# Test system: Chordin-like protein 2 (CHRDL2)
# assay: CHRDL2 small-molecule binders, primary screen, biochemical, small-molecule microarray, 635 nm fluorescence (AID 1126);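 note: printed compound slides probed with Chrdl2 protein at 4 µg/mL for 1 h at 4 C; score merges 667 nm emission intensity with signal to noise over three replicate slides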
# experimentalContext: small-molecule microarray binding, fluorescence 635 nm; higher = more signal
When you answer, write just the number.

CC(C)CNC(=O)[C@@H]1c2ccccc2C(=O)N(C(C)C)[C@H]1c1ccc(CO)cc1: 0.0021

Query (compound): COCCOC(=O)N1C(=O)[C@@]2(c3cc(C#CC4=CCCCC4)ccc31)[C@H](C(=O)N1CCc3cc(OC)c(OC)cc3C1)[C@H]1C(=O)O[C@H](c3ccccc3)[C@H](c3ccccc3)N1[C@@H]2c1ccc(O)cc1 ; field requested: composite z-score
0.463

Next: C=CC[C@@]1(C(=O)O)N=C(c2ccc(OCCCO)cc2)O[C@@H]1c1ccccc1CN=[N+]=[N-]
0.439
